# Test system: MDA-MB-435
# Test summary: Cytotoxicity against human MDA-MB-435 cells assessed as growth inhibition after 48 hrs by sulforhodamine B assay
# Format: functional
# Experimental context: MDA-MB-435, 48 h
# label = Satisfied if LC50 < 20 µM else Not satisfied

Task item: Check if LC50 falls below 20 µM for COc1ccc(-c2cc(/C=C/C(=O)c3ccc(N)cc3)[nH]n2)cc1 .
Reply: Not satisfied

Task item: Check if LC50 falls below 20 µM for COc1cc(C(=O)/C=C/c2cc(-c3ccc4c(c3)OCO4)n[nH]2)cc(OC)c1OC .
Reply: Not satisfied

Task item: Check if LC50 falls below 20 µM for COc1ccc(-c2cc(/C=C/C(=O)c3ccc(OC)c(OC)c3)[nH]n2)cc1 .
Reply: Satisfied

Task item: Check if LC50 falls below 20 µM for COc1cc(-c2cc(/C=C/C(=O)c3ccc(N)cc3)[nH]n2)cc(OC)c1OC .
Reply: Satisfied

Task item: Check if LC50 falls below 20 µM for COc1cc(-c2cc(/C=C/C(=O)c3ccc4c(c3)OCO4)[nH]n2)cc(OC)c1OC .
Reply: Not satisfied

Task item: Check if LC50 falls below 20 µM for COc1ccc(-c2cc(/C=C/C(=O)c3ccc(N)cc3)[nH]n2)cc1OC .
Reply: Not satisfied

----------
# System: HCT-15
# Test summary: Cytotoxicity against human HCT15 cells assessed as cell growth at 10 uM after 48 hrs by sulforhodamine B assay relative to control
# Format: functional
# Experimental context: HCT-15, 48 h, read-out: Activity
Measured endpoint: growth at 10 µM (%)
API: value field is a number in %; no unit string.

Given item COc1ccc(C(=O)/C=C/c2cc(-c3cc(OC)c(OC)c(OC)c3)n[nH]2)cc1 , the value recorded as its growth at 10 µM is -41

Given item COc1ccc(C(=O)/C=C/c2cc(-c3cc(OC)c(OC)c(OC)c3)n[nH]2)cc1OC , the value recorded as its growth at 10 µM is -78

Given item COc1ccc(-c2cc(/C=C/C(=O)c3ccc(N)cc3)[nH]n2)cc1OC , the value recorded as its growth at 10 µM is -27

Given item COc1cc(-c2cc(/C=C/C(=O)c3ccc(F)c(F)c3)[nH]n2)cc(OC)c1OC , the value recorded as its growth at 10 µM is 9

----------
Assign growth at 0.1 µM to each entry below.
# Test system: SW-620
# Test summary: Cytotoxicity against human SW620 cells assessed as cell growth at 0.1 uM after 48 hrs by sulforhodamine B assay relative to control
# Format: functional
# Experimental context: SW-620, 48 h, read-out: Activity
API: value field is a number in %; no unit string.

Given item COc1ccc(C(=O)/C=C/c2cc(-c3ccc4c(c3)OCO4)n[nH]2)cc1OC , the value recorded as its growth at 0.1 µM is 95

Given item COc1ccc(-c2cc(/C=C/C(=O)c3ccc(N)cc3)[nH]n2)cc1OC , the value recorded as its growth at 0.1 µM is 97

Given item COc1ccc(-c2cc(/C=C/C(=O)c3ccc(OC)c(OC)c3)[nH]n2)cc1 , the value recorded as its growth at 0.1 µM is 99

Given item COc1ccc(-c2cc(/C=C/C(=O)c3cc(OC)c(OC)c(OC)c3)[nH]n2)cc1OC , the value recorded as its growth at 0.1 µM is 96

Given item COc1cc(-c2cc(/C=C/C(=O)c3ccc(N)cc3)[nH]n2)cc(OC)c1OC , the value recorded as its growth at 0.1 µM is 95

Given item COc1cc(-c2cc(/C=C/C(=O)c3ccc4c(c3)OCO4)[nH]n2)cc(OC)c1OC , the value recorded as its growth at 0.1 µM is 96
